Test system: colonic cells of the GI tract obtained from guinea pig
Assay: Ex vivo GLP-1 biosynthesis and secretion, guinea pig GI tract cells
Assay type: cell-based
Conditions: Cavia porcellus; ex vivo incubation 2 hours, quadruplicates
Parameter: EC50. Scope: all listed entries.
Hi! Could you send only the number? It should be in µM, unit omitted.

• CCCCCCCC/C=C\CCCCCCCC(=O)NCCO [OEA, Oleoylethanolamide] = 30.7
• CCCCC/C=C\C/C=C\CCCCCCCC(=O)Nc1ccc(-c2nnn[nH]2)cc1 [ps316a] = 22.4

With those in mind, consider the next molecule.
Per the records, this molecule ( CCCCCCCC/C=C\CCCCCCCC(=O)Nc1ccc(-c2nnn[nH]2)cc1 [ps297b] ) has EC50 equal to 30
